- SYSTEM_UNDER_TEST: CPSF73 (Homo sapiens, UniProt Q9UKF6)
MEASUREMENT_LABEL: pIC50
pIC50 is a log-scale quantity: -log10 of the concentration expressed in molar.

[in] Give pIC50 for this entry on CPSF73 (Homo sapiens, UniProt Q9UKF6): "O=C(O)CCc1cccc2c1B(O)OC2"
[out] 6.07
